system: Staphylococcus aureus SG 511; assay: Minimum inhibition concentration (MIC), Table 5; type: cell-based; conditions: Staphylococcus aureus, SG511, Germ: Staphylococcus aureus SG 511; read-out: Minimum inhibition concentration (MIC)
observedProperty: MIC

> print(dat)
                                   molecule     observedmeasurement
1  N=C(N)Nc1ccc(CC(=O)NC2C(=O)N3C(C(=O)O)=C(CSc4nccs4)CSC23)cc1 (stereo not shown)   0.0625 to 0.078 µg/mL
2  CCCCCCNC(=N)c1ccc(OCC(=O)NC2C(=O)N3C(C(=O)O)=C(CSc4nnc(-c5ccccc5)o4)CSC23)cc1 (stereo not shown)  0.0196 to 0.0391 µg/mL
3  N=C(N)c1ccc(OCC(=O)NC2C(=O)N3C(C(=O)O)=C(CSc4nnc(-c5ccccc5)s4)CSC23)cc1 (stereo not shown)  0.0196 to 0.0391 µg/mL

Then there is this molecule:
Reported MIC for O=C(Cc1ccc(C2=NCCCN2)cc1)NC1C(=O)N2C(C(=O)O)=C(CSc3nc4ccccc4s3)CSC12 (stereo not shown) : what is it?
0.0625 to 0.078 µg/mL
